endpoint_name: melting point

molecule	endpoint_value
Cc1cccc(S(=O)(=O)N2CCn3c(c(C(N)=O)c(Cl)c3-c3ccccc3)C2)c1	165 to 167 °C
CCCN(CCC)C(N)=C(C#N)C#N	100 to 105 °C

Look at this molecule and give its reported melting point. CCC(=O)C1=C(O)CC(c2ccc3c(c2)CCC3)CC1=O (stereo unspecified)
98 °C

What about this molecule? CCOC(=O)Cn1c(N)nc(-c2ccccc2)c1-c1ccccc1
173 to 175 °C

What about this molecule? CN(C)C=Cc1cc(-n2cncn2)ncc1[N+](=O)[O-]
225 to 228 °C

What about this molecule? CCOC(Cl)(Cl)C1OC(=C(Cl)Cl)c2cc(C(=O)O)ccc2O1 (stereo unspecified)
121 to 122 °C

* * *

Quick reference: melting point of the listed items.

molecule	endpoint_value
Cc1cc(C2(C(F)(F)F)CC(n3cncn3)=NO2)ccc1NC(=O)c1cccc(I)c1C(=O)NC(C)C (stereo not given)	131 to 133 °C

Look at this molecule and give its reported melting point. CCn1c(-c2sc(NC(=O)c3ccncc3)nc2-c2ccco2)cccc1=O
> 300 °C

What about this molecule? FC(F)Oc1cn(-c2c(Cl)cc(C(F)(F)F)cc2Cl)nc1C(F)(F)F
55.5 to 58 °C

What about this molecule? Cc1cccc(N2CCN(CCc3ccc(-c4cccc(N)n4)cc3)CC2)c1
158 to 160 °C

What about this molecule? CCCc1c(C)[nH]c(C(=O)OCC)c1C
104 to 106 °C

* * *

Quick reference: melting point of the listed items.

COc1ccc(-c2cc(=O)cc(C(N)=O)o2)cc1 303 to 308 °C
CC(C)Oc1cccc(C=C2Oc3ccc(C(=O)O)cc3C2=O)c1 277 to 279 °C
Cc1cnc(NC(=O)c2cc(Oc3ccc(C(=O)N4CCC4)cc3F)cc(O[C@@H](C)CO)c2)cn1 172 °C
CCc1nc2c(cnn2CC)c(NC2CCOCC2)c1CNC(=O)c1cccc(C(=O)NCc2ccc(Cl)c(-c3cccc(C=O)c3)c2)c1 131 to 134 °C

Would you kindly look at the next entry?
Look at this compound and give its reported melting point. CCCCCCCCCCOC(=O)CN(CP(=O)(ONC1CCCCC1)ONC1CCCCC1)C(=O)C(F)(F)F
79.5 to 82.5 °C

* * *

Quick reference: melting point of the listed items.
Kindly answer with a numeric value in °C, unit omitted.

compound	melting point / °C
O=C1NCCN1CCN1CCC(c2cn(-c3ccc(F)cc3)c3ccc(O)cc23)CC1	220

Would you kindly look at the next entry?
Look at this compound and give its reported melting point. Cc1nn(C)c(F)c1C(=O)Nc1cccc2c1C(C)CC2(C)C (stereo not given)
137

* * *

Quick reference: melting point of the listed items.

compound	melting point
c1csc(CNc2nc(-n3ccnc3)nc3ccccc23)c1	234 to 235 °C

Look at this compound and give its reported melting point. CCCCCCCCCC(=O)Nc1ccc(S(=O)(=O)Nc2nnc(CO)s2)cc1
69 to 70 °C

What about this compound? CN1C(=O)CCC(C)(C)c2cc(C(=O)Nc3ccc(C(=O)O)cc3)ccc21
> 275 °C

What about this compound? CC1(C)Oc2ccc(-c3c(O)c(=O)c3=O)cc2[C@@H](N2Cc3ccccc3C2=O)[C@@H]1O (relative stereo)
> 250 °C

What about this compound? C[C@H](NC(=O)OC(C)(C)C)C(=O)C=[N+]=[N-]
99 to 102 °C

What about this compound? O=C(CCCN1CCN(c2noc3cc(OC(=O)C45CC6CC(CC(C6)C4)C5)ccc23)CC1)c1ccc(F)cc1
157 to 158 °C

What about this compound? CC(=O)Nc1ccc(S(=O)(=O)NC(=N)c2cnccn2)cc1
270 to 274 °C

What about this compound? CN(C)c1ccc(C(=S)Nc2ccc([N+](=O)[O-])cc2)cc1
210 °C

What about this compound? O=C(O)C(Sc1ccccc1)c1cc(Cl)cc(Cl)c1 (centres undefined)
115 to 119 °C

The reported measurements were obtained from a melting point compilation (Tetko et al.; mined from patent text by program, amines drawn as free bases though some values may be those of a salt).
